details: human gut metagenome, 24 h, 2 µM; further: call rule not given here
valueKind: Bacterial Biotransformation

// below: answered compounds
C=CCN1CC[C@]23c4c5ccc(O)c4O[C@H]2C(=O)CC[C@@]3(O)[C@H]1C5 [NALOXONE]
Compound NOT metabolized
CN1C[C@H](C(=O)N[C@]2(C)O[C@@]3(O)[C@@H]4CCCN4C(=O)[C@H](Cc4ccccc4)N3C2=O)C=C2c3cccc4[nH]cc(c34)C[C@H]21.CN1C[C@H](C(=O)N[C@]2(C)O[C@@]3(O)[C@@H]4CCCN4C(=O)[C@H](Cc4ccccc4)N3C2=O)C=C2c3cccc4[nH]cc(c34)C[C@H]21.O=C(O)C(O)C(O)C(=O)O [ERGOTAMINE TARTRATE]
Compound metabolized
CCCCCOC(=O)Nc1nc(=O)n([C@@H]2O[C@H](C)[C@@H](O)[C@H]2O)cc1F [CAPECITABINE]
Compound metabolized
CC[C@H](C)C(=O)O[C@H]1C[C@@H](C)C=C2C=C[C@H](C)[C@H](CC[C@@H]3C[C@@H](O)CC(=O)O3)[C@H]21 [LOVASTATIN]
Compound NOT metabolized

Could I get Bacterial Biotransformation for every one of these entries?
1. COC(=O)[C@H]1[C@H]2C[C@@H]3c4[nH]c5cc(OC)ccc5c4CCN3C[C@H]2C[C@@H](OC(=O)c2cc(OC)c(OC)c(OC)c2)[C@@H]1OC [RESERPINE]
2. CCCCC(=O)N(Cc1ccc(-c2ccccc2-c2nnn[nH]2)cc1)[C@H](C(=O)O)C(C)C

Result:
1: Compound metabolized; 2: Compound metabolized

---

settings: human gut metagenome, 24 h, 2 µM
valueKind: Bacterial Biotransformation

// below: answered compounds
CC[C@H](C)C(=O)O[C@H]1C[C@@H](C)C=C2C=C[C@H](C)[C@H](CC[C@@H]3C[C@@H](O)CC(=O)O3)[C@H]21 [LOVASTATIN]
Compound metabolized
O=C(O)CCc1nc(-c2ccccc2)c(-c2ccccc2)o1 [OXAPROZIN]
Compound NOT metabolized
CN(C)C(=O)C(CCN1CCC(O)(c2ccc(Cl)cc2)CC1)(c1ccccc1)c1ccccc1 [LOPERAMIDE]
Compound metabolized
CC(C)NCC(O)COc1ccc(CCOCC2CC2)cc1 (configuration not stated) [BETAXOLOL]
Compound NOT metabolized

Could I get Bacterial Biotransformation for every one of these entries?
1. CN1CCC(=C2c3ccccc3CCc3cccnc32)CC1.O=C(O)/C=C\C(=O)O.O=C(O)/C=C\C(=O)O [AZATADINE MALEATE]
2. CN(C)CC(c1ccc(O)cc1)C1(O)CCCCC1.O=C(O)CCC(=O)O (configuration not stated) [DESVENLAFAXINE SUCCINATE]
3. O=c1[nH]c2ccccc2n1CCCN1CCC(n2c(=O)[nH]c3cc(Cl)ccc32)CC1 [DOMPERIDONE]
4. CCCc1nc2c(C)cc(-c3nc4ccccc4n3C)cc2n1Cc1ccc(-c2ccccc2C(=O)O)cc1
5. NS(=O)(=O)c1cc2c(cc1Cl)N=C(CSCc1ccccc1)NS2(=O)=O [BENZTHIAZIDE]
6. Cc1ccccc1N1C(=O)c2cc(S(N)(=O)=O)c(Cl)cc2NC1C (configuration not stated) [METOLAZONE]
7. CS(=O)(=O)O.O.O.O.O=C1Cc2cc(CCN3CCN(c4nsc5ccccc45)CC3)c(Cl)cc2N1 [ZIPRASIDONE MESYLATE]

Result:
1: Compound NOT metabolized; 2: Compound NOT metabolized; 3: Compound NOT metabolized; 4: Compound metabolized; 5: Compound NOT metabolized; 6: Compound metabolized; 7: Compound NOT metabolized

Could I get Bacterial Biotransformation for every one of these entries?
1. Cc1nc2n(c(=O)c1CCN1CCC(c3noc4cc(F)ccc34)CC1)CCCC2O (configuration not stated) [PALIPERIDONE]
2. CC(=O)CC(c1ccccc1)c1c(O)c2ccccc2oc1=O (configuration not stated) [WARFARIN]
3. CCN(CC)CCOC(=O)C(Cc1cccc2ccccc12)CC1CCCO1.O=C(O)C(=O)O (configuration not stated) [NAFRONYL OXALATE]
4. NC(=O)N1c2ccccc2CC(=O)c2ccccc21 [OXCARBAZEPINE]
5. CC(C)(C#N)c1cc(Cn2cncn2)cc(C(C)(C)C#N)c1 [ANASTROZOLE]
6. CO[C@]12C[C@@H](COC(=O)c3cncc(Br)c3)CN(C)[C@@H]1Cc1cn(C)c3cccc2c13 [NICERGOLINE]
7. CCCC1O[C@@H]2C[C@H]3[C@@H]4CCC5=CC(=O)C=C[C@]5(C)[C@H]4[C@@H](O)C[C@]3(C)[C@]2(C(=O)CO)O1 (some centres not stated) [BUDESONIDE]
8. CC[C@@H](CO)NC(=O)[C@@H]1C=C2c3cccc4c3c(cn4C)C[C@H]2N(C)C1.O=C(O)/C=C\C(=O)O [METHYSERGIDE MALEATE]

Result:
1. Compound metabolized
2. Compound metabolized
3. Compound NOT metabolized
4. Compound NOT metabolized
5. Compound NOT metabolized
6. Compound NOT metabolized
7. Compound metabolized
8. Compound NOT metabolized

Could I get Bacterial Biotransformation for every one of these entries?
1. Cc1ccc(-c2cc(C(F)(F)F)nn2-c2ccc(S(N)(=O)=O)cc2)cc1 [CELECOXIB]
2. COC1=CC(=O)C[C@@H](C)[C@]12Oc1c(Cl)c(OC)cc(OC)c1C2=O [GRISEOFULVIN]
3. CCCc1nc(C(C)(C)O)c(C(=O)OCc2oc(=O)oc2C)n1Cc1ccc(-c2ccccc2-c2nnn[nH]2)cc1 [OLMESARTAN MEDOXOMIL]

Result:
1. Compound metabolized
2. Compound metabolized
3. Compound metabolized

Could I get Bacterial Biotransformation for every one of these entries?
1. CCN(CC)CCNC(=O)c1cc(Cl)c(N)cc1OC [METOCLOPRAMIDE]
2. CCC1(c2ccc(N)cc2)CCC(=O)NC1=O (configuration not stated) [AMINOGLUTETHIMIDE]
3. COC(=O)C1=C(C)NC(C)=C(C(=O)OC(C)C)C1c1cccc2nonc12 (configuration not stated) [ISRADIPINE]
4. COc1ccc2c(c1OC)C(=O)O[C@@H]2[C@H]1c2c(cc3c(c2OC)OCO3)CCN1C [NOSCAPINE]

Result:
1. Compound NOT metabolized
2. Compound NOT metabolized
3. Compound NOT metabolized
4. Compound NOT metabolized
